The origin of these recorded values is patent US9073862B2.

Biological target: KCNQ2/3 channels (Homo sapiens, UniProt O43525+O43526)
Construct: expressed in transfected cells; host or cells: CHO-K1
Experiment: Fluorescence assay using a voltage sensitive dye (fluorimetry)
Type: cell-based
Conditions: CHO-K1 cells expressing KCNQ2/3 channels; relative to retigabine = 100%; read-out: Fluorimetry % efficacy (retigabine = 100%)
Protocol: Method I. Fluorescence Assay Using a Voltage Sensitive Dye (Fluorimetry) […] Before being sown out for the measurements, the cells are washed with 1×DPBS buffer Ca^2+/Mg^2+-free (e.g. Invitrogen, #14190-094) and detached from the bottom of the culture vessel by using Accutase (PAA Laboratories, #L11-007) (incubation with Accutase for 15 min at 37° C.). The cell number is determined using a CASY™ cell counter (TCC, Schärfe System). […]
readout: Emax (%)

smiles.code	subject.of.test	Emax [%]
COc1nc2cc(C(F)(F)F)ccc2c(C)c1C(=O)NCc1cccc(C)c1	KCNQ2/3 channels (Homo sapiens, UniProt O43525+O43526)	71
COc1nc2cc(C(F)(F)F)ccc2c(OC)c1C(=O)NCc1cccc(F)c1	KCNQ2/3 channels (Homo sapiens, UniProt O43525+O43526)	147

(P) CCOc1nc2cc(C(F)(F)F)ccc2c(C)c1C(=O)NCc1ccc(F)c(C)c1
(Q) COc1nc2cc(C(F)(F)F)ccc2c(C)c1C(=O)NCCCC(C)(C)C
For the pair P and Q , which member has the lower Emax number? Label of pick, please.
P

---

Target: KCNQ2/3 channels (Homo sapiens, UniProt O43525+O43526)
Experiment: Fluorescence assay using a voltage sensitive dye (fluorimetry)
Settings: CHO-K1 cells expressing KCNQ2/3 channels
pEC50: −log10 of the molar value.
readout: pEC50

# count of solved cases: 3
smiles.code	pEC50
CCOc1nc2cc(C(F)(F)F)ccc2c(C)c1C(=O)NCc1cccc(C)c1	7.24
COc1nc2cc(F)ccc2c(C)c1C(=O)NCc1ccc(F)cc1	6.52
Cc1c(C(=O)NCc2ccc(F)cc2)c(OC(C)C)nc2cc(C(F)(F)F)ccc12	7.28

(1) CCOc1nc2cc(C(F)(F)F)ccc2c(OC)c1C(=O)NCc1cccc(F)c1
(2) CCOc1nc2cc(C(F)(F)F)ccc2c(C)c1C(=O)NCc1cccc(F)c1
(3) COc1nc2cc(F)ccc2c(C)c1C(=O)NCc1cccc(F)c1
Rank the items in ascending order with respect to pEC50. List the labels according to the requested ordering.
3, 1, 2
(3: 6.47, 1: 6.98, 2: 7.24)

(A) CCOc1nc2cc(C(F)(F)F)ccc2c(C)c1C(=O)NCc1ccc(C)cc1
(B) CCOc1nc2cc(C#N)ccc2c(C)c1C(=O)NCc1ccc(F)cc1
Identify the item whose pEC50 is the smaller number: A or B // caller expects the label of the chosen entry
A
(A: 6.88, B: 7.09)

---

Biological target: KCNQ2/3 channels (Homo sapiens, UniProt O43525+O43526)
Construct: expressed in transfected cells; host or cells: CHO-K1
Experiment: Fluorescence assay using a voltage sensitive dye (fluorimetry)
Type: cell-based
Conditions: CHO-K1 cells expressing KCNQ2/3 channels; relative to retigabine = 100%; read-out: Fluorimetry % efficacy (retigabine = 100%)
readout: Emax (%)

Reference set, count: 5
smiles.code	Emax, %
COc1nc2cc(C(F)(F)F)ccc2c(C)c1C(=O)NCc1ccc(F)cc1	122
COc1nc2cc(C(F)(F)F)ccc2c(C)c1C(=O)NCc1ccc(C)c(F)c1	99
Cc1c(C(=O)NCc2ccc(F)cc2)c(OC(C)C)nc2cc(C(F)(F)F)ccc12	164
CCOc1nc2cc(C(F)(F)F)ccc2c(OC)c1C(=O)NCc1ccc(F)cc1	155
CCOc1nc2cc(F)c(F)cc2c(OC)c1C(=O)NCc1cccc(F)c1	181

(A) CCOc1nc2cc(C(F)(F)F)ccc2c(C)c1C(=O)NCCCC(C)C
(B) COc1nc2cc(C#N)ccc2c(C)c1C(=O)NCc1cccc(F)c1
Select the item whose Emax value is smaller, choosing between A and B . Respond with the label that goes with your answer.
B
(B: 85%, A: 173%)

(a) COc1cc(F)cc(CNC(=O)c2c(OC)nc3cc(C(F)(F)F)ccc3c2C)c1
(b) Cc1c(C(=O)NCc2cccc(F)c2)c(OCCO)nc2cc(C(F)(F)F)ccc12
For a and b , which recorded Emax is lower? State your choice using its label.
a

---

Test system: withdrawal reflex of the rat tail (tail flick) in response to a radiant heat beam
Experiment: Low-intensity tail flick test (rat)
Format: in vivo
Conditions: po, peroral, dose 10.00 mg/kg, read-out: Low intensity tail flick, rat, peroral, MPE (dose)
Catalogue of inhibition in vivo at 10 mg/kg readings, one per entry.
// units = %; emit number, no label

smiles.code	inhibition in vivo at 10 mg/kg / %
COCCOc1nc2cc(C(F)(F)F)ccc2c(C)c1C(=O)NCc1ccc(F)cc1	22
COc1nc2cc(C(F)(F)F)ccc2c(OC)c1C(=O)NCc1cccc(F)c1	10
CCOc1nc2cc(C(F)(F)F)ccc2c(C)c1C(=O)NCc1cccc(C)c1	20
Cc1c(C(=O)NCc2cccc(F)c2)c(OCC(F)(F)F)nc2cc(C(F)(F)F)ccc12	24
COc1nc2cc(C(F)(F)F)ccc2c(C)c1C(=O)NCCCC(C)(C)C	28

Read off the recorded inhibition in vivo at 10 mg/kg for COc1nc2cc(C(F)(F)F)ccc2c(OC)c1C(=O)NCc1ccc(F)cc1
74

Report inhibition in vivo at 10 mg/kg for CCOc1nc2cc(C(F)(F)F)ccc2c(C)c1C(=O)NCc1ccc(C)c(F)c1
24

---

Biological target: KCNQ2/3 channels (Homo sapiens, UniProt O43525+O43526)
Construct: expressed in transfected cells; host or cells: CHO-K1
Assay: Fluorescence assay using a voltage sensitive dye (fluorimetry)
Format: cell-based
Details: CHO-K1 cells expressing KCNQ2/3 channels; relative to retigabine = 100%; read-out: Fluorimetry % efficacy (retigabine = 100%)
Protocol: Method I. Fluorescence Assay Using a Voltage Sensitive Dye (Fluorimetry) […] Before being sown out for the measurements, the cells are washed with 1×DPBS buffer Ca^2+/Mg^2+-free (e.g. Invitrogen, #14190-094) and detached from the bottom of the culture vessel by using Accutase (PAA Laboratories, #L11-007) (incubation with Accutase for 15 min at 37° C.). The cell number is determined using a CASY™ cell counter (TCC, Schärfe System). […]
readout: Emax (%)

Worked cases, answers included:
smiles.code	subject.of.test	measured
CC(C)Oc1nc2ccccc2c(C(F)(F)F)c1C(=O)NCc1cccc(F)c1	KCNQ2/3 channels (Homo sapiens, UniProt O43525+O43526)	84
COc1nc2cc(C(F)(F)F)ccc2c(C)c1C(=O)NCc1cc(O)cc(F)c1	KCNQ2/3 channels (Homo sapiens, UniProt O43525+O43526)	9
COc1nc2cc(C#N)ccc2c(C)c1C(=O)NCc1ccc(F)cc1	KCNQ2/3 channels (Homo sapiens, UniProt O43525+O43526)	74

(1) COc1ccc(F)cc1CNC(=O)c1c(OC)nc2cc(C(F)(F)F)ccc2c1C
(2) COc1nc2cc(C(F)(F)F)ccc2c(C)c1C(=O)NCc1cccc(F)c1OC
(3) COc1nc2cc(F)ccc2c(C)c1C(=O)NCc1ccc(F)cc1
(4) COc1nc2cc(C(F)(F)F)ccc2c(C)c1C(=O)NCc1ccc(O)c(F)c1
Put the items in sequence by Emax, from largest down. As an answer, provide the labels arranged in the order called for.
1, 4, 3, 2
(1: 140%, 4: 87%, 3: 59%, 2: 10%)

(I) Cc1c(C(=O)NCc2cccc(F)c2)c(OCC(F)(F)F)nc2cc(C(F)(F)F)ccc12
(II) COc1nc2cc(C(F)(F)F)ccc2c(C)c1C(=O)NCCC(C)(C)C
(III) COc1nc2cc(C(F)(F)F)ccc2c(OC)c1C(=O)NCc1ccc(F)cc1
Please list these in order of increasing Emax. Thank you! Kindly provide the labels arranged according to the requested ordering.
II, I, III
(II: 57%, I: 108%, III: 159%)

(1) CCOc1nc2cc(C#N)ccc2c(C)c1C(=O)NCc1cccc(F)c1
(2) COc1nc2ccccc2c(C(F)(F)F)c1C(=O)NCc1cccc(F)c1
Of 1 and 2 , whose reported Emax is numerically smaller? Give the label of your selection.
2
(2: 40%, 1: 105%)

(A) COc1nc2cc(C(F)(F)F)ccc2c(C)c1C(=O)NCc1cccc(F)c1O
(B) COc1nc2c(F)c(F)ccc2c(C)c1C(=O)NCc1cccc(F)c1
Pick one: A or B . Which one has the lower reported Emax? Mark your selection by writing its label.
B

---

Molecular target: KCNQ2/3 channels (Homo sapiens, UniProt O43525+O43526)
Assay: Fluorescence assay using a voltage sensitive dye (fluorimetry)
Conditions: CHO-K1 cells expressing KCNQ2/3 channels
readout: EC50 (nM)

Consider the following illustrative entries.
smiles.code	readout	measured
COc1nc2cc(C(F)(F)F)ccc2c(C)c1C(=O)NCCCC(C)C	EC50	81
CCOc1nc2cc(C(F)(F)F)ccc2c(C)c1C(=O)NCCCC(C)C	EC50	84
COc1nc2cc(C(F)(F)F)ccc2c(C)c1C(=O)NCc1ccc(F)cc1	EC50	57

(a) CCOc1nc2cc(C(F)(F)F)ccc2c(OC)c1C(=O)NCc1ccc(F)cc1
(b) COc1nc2cc(C(F)(F)F)ccc2c(C)c1C(=O)NCc1ccc(C)cc1
Input pair: a , b . Output: entry with lower EC50. Field: selected label. Fill in the label of the entry you choose.
a
